Assignment: determine reported protein stability index for the given sequences.
Test: protein stability index of a GFP-peptide fusion (GPS, HEK-293T) (PSI 1-6); higher = more stable;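 note: 24-mer peptide tiles fused after GFP, lentivirally expressed, FACS-sorted into six equal bins by GFP/DsRed ratio, decoded by Illumina sequencing, PSI is the read-weighted mean bin number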
Conditions: treatment: MLN4924 1 uM, 8 h; c terminus: a fixed tail appended

Challenge: Which protein stability index value is on record for IFYDLVRQINRKTPVPGKARKKSS [RAP1B] ?
Response given: 2.37

Challenge: Look up protein stability index for this sequence: PSLSTITSTSSSITSSIPDTERLD [DVL3]
Response given: 5.28

Challenge: Quick one: protein stability index of VHFSEAIEKFIREPSLKATMGLAG [ALG2] ?
Response given: 2.43

Challenge: Name the recorded protein stability index for EFYHDEFKRWIYLNDQNLCIPASS [GAN] .
Response given: 2.74

Challenge: What value of measured protein stability index is listed for DCLKACQEQIEAVLLNSLQQYRQD [CCND2] ?
Response given: 2.33

Challenge: Value lookup for protein stability index; key = ATLCLEFLLQNDANPSIRDKEGYN [ANKRD44]
Response given: 2.73

Challenge: GET /values?readout=protein stability index&item= RERREEDRAPAEQVPRSPVIKISY [PWWP2B]
Response given: 4.08

Challenge: Field request: protein stability index | item: TVEKDESHAGKVVLRSWYEKNKHI [FAM50A]
Response given: 3.87

Challenge: For HAACLKCAECSQYLDETCTCFVRD [ISL2] , what is its reported protein stability index?
Response given: 4.83

Challenge: May I ask what protein stability index has been recorded for KVRQLERDNAELEKLIQERSQQQE [KRT34] ?
Response given: 5.28

Challenge: Fill in the blank: the reported protein stability index of TAENERLQKKVEQLSRELSTLRNL [CEBPB] is ____.
Response given: 3.95

Challenge: Please look up its protein stability index: PEVLDRESRDRPSCAPSASIPKLK [PWWP2B]
Response given: 5.25

Challenge: Recorded protein stability index of LVGIFILAVSRPRSSPDDLKALTR [SCARA5] , please.
Response given: 2.84

Challenge: Request the reported protein stability index associated with VLEQFLTILPQEIQSRVQELHPES [ZNF263]
Response given: 2.53

Challenge: Need protein stability index of IVFPEKLNGSVLPGSGAPARLLCR [ADAMTS4] , thanks.
Response given: 2.59

Challenge: For the sequence shown here, MFLQLVPSWNGSLKQLLTETDVWF [GMCL1] , give the reported protein stability index.
Response given: 2.56

Challenge: Given the sequence ASSGDLTCGVCALELGSTEVLLDH [PLAGL1] , what is its reported protein stability index?
Response given: 2.82

Challenge: I would be grateful if you could share the reported protein stability index for ILRLPLEHACTVRNLARSQSVKMK [TAF7L] .
Response given: 3.19

Challenge: # get_value(readout='protein stability index', item= LPSHPLELSEKNFQLNQDKMNFST [POMP] )
Response given: 3.78

Challenge: Requested read-out: protein stability index. Entry: KCKSTLSPPEASPGPPAAPRARRR [PWWP2B]
Response given: 5.34

Challenge: Sample HLNRGNHEDHMVNLRYGFTKEVMN [PPEF2] — what was its protein stability index?
Response given: 3.16

Challenge: Quick check: protein stability index of FIGETLLSMNWAIVADILLYVVIP [SPNS1] ?
Response given: 3.45

Challenge: So what does the record say about protein stability index for ASSNVFSNFEQTQIQEFKEAFTLM [MYL5] ?
Response given: 3.42

Challenge: Dear colleague, I am looking for the recorded protein stability index of the following sequence: DCLQGIRKGLQHGFFDFETFDVDE [CDC14A]
Response given: 3.62

Challenge: Tell me the measured protein stability index of FRGQILGFWEEERPFWEEEKTFWK [CCDC70] , please.
Response given: 2.28

Challenge: Fill in: protein stability index of PGFGCKAVRCASGRCTVRDFIHRH [SDE2] is ___
Response given: 2.14

Challenge: What value of measured protein stability index is listed for VIDLAESLVADNCVTLVWRMPDED [FSD1] ?
Response given: 2.79

----------
Experiment: protein stability index of a GFP-peptide fusion (GPS, HEK-293T) (PSI 1-6); higher = more stable
Settings: treatment: DMSO; c terminus: a fixed tail appended
Rule: protein stability index of 3 or more gives y; anything lower gives n.

Challenge: Please tell me: is the sequence QELANIDPTWIESPKTNGHIENGP [SRPK2] at or over 3 in terms of protein stability index?
Response given: y

Challenge: Form field: protein stability index at least 3? Entry: ILDSLLFFYDCSNNPISEHFHPTV [TENT5C]
Response given: y

Challenge: Given QAYLDDCHRRYSCAHCRAHLANHD [YPEL3] , state whether its protein stability index is at least 3.
Response given: n

Challenge: Reported protein stability index reaches at least 3 for PAPAPLVPQDPDLEEEEEEEDLVL [ZBTB22] ?
Response given: y

Challenge: Is protein stability index for HRVKLTNSTLDPHGHLILHSMHKY [TBX6] at or above 3?
Response given: n

Challenge: Dear colleague, could you confirm whether GLAFIAFTEAMTHFPASPFWSVMF [SLC6A17] has protein stability index at or above 3?
Response given: y

Challenge: Answer whether protein stability index of TVGVYEAAKLLNVDPDNVVLCLLA [GADD45A] is greater than or equal to 3.
Response given: n

Challenge: Does the reported protein stability index for LGMYQKVTSYCRSATLVGFTVGSV [SLC19A2] fall at or above the 3 mark?
Response given: n

Challenge: Would you say TAGKVLAHFYGVKLEGKVPMHKLF [ESRRA] shows protein stability index at minimum 3?
Response given: n

Challenge: Entry ICGFLKERCFRGSSYPVCVSKVVK [OAS1] : is its protein stability index no less than 3?
Response given: n

Challenge: I'd appreciate it if you could say whether RPASSGGAHTLVNHGYAEPAAGRE [KCNA3] has protein stability index at least equal to 3.
Response given: y

Challenge: Dear colleague, could you confirm whether ESAKDWETSPLPGMLAPAAGPAFD [PPFIA4] has protein stability index at or above 3?
Response given: y

Challenge: protein stability index >= 3 for QVNRRSAKGNTALHDCAESGSLEI [FEM1A] ?
Response given: y

Challenge: Identify whether the reported protein stability index of the following sequence is 3 or greater: METSAPRAGSQVVATTARHSAAYR [FUNDC2]
Response given: y

Challenge: Given AQPQGAPCCSSSPEEPLNGESYES [FEM1A] , state whether its protein stability index is at least 3.
Response given: y

Challenge: Could you please find out whether ARLAADDFRVKYETELAMRQSVEN [KRT18] has protein stability index that meets 3 or exceeds it?
Response given: y

Challenge: Hello, I need to know if DKTDISSGRARQQDEEMLELPAPA [MLH1] has measured protein stability index not below 3. Thanks!
Response given: y

Challenge: Is reported protein stability index greater than or equal to 3 here: MFLQLVPSWNGSLKQLLTETDVWF [GMCL1]
Response given: y

Challenge: Test whether the sequence APQNSFSAKLAPHYFHSISYKIEE [KCNK9] records protein stability index of 3 or higher.
Response given: y

Challenge: Determine whether measured protein stability index meets or exceeds 3 for YVYFFCTVPEILVHNIVIFMRTSV [TMEM106C]
Response given: y

Challenge: State whether the measured protein stability index reaches 3, counting equality as reaching it, for GSTLAMLQRLKEQQFVIAGVLVED [ZBED1]
Response given: n

Challenge: # bool: protein stability index of EYLSLVKGGQDVKKKVHLSEKIHP [PRIM1] >= 3
Response given: n

Challenge: # check: protein stability index of RTSLSSGATVRSFSINSRLASSLG [CDC14A] is greater than or equal to 3
Response given: n

Challenge: Tell me whether protein stability index is at least 3 here: GLQAQILHCYRDRPHEVLLCSDLV [CHCHD6]
Response given: n

----------
Could you please report measured protein stability index for the items listed next?
Assay: protein stability index of a GFP-peptide fusion (GPS, HEK-293T) (PSI 1-6); higher = more stable
Settings: treatment: MLN4924 1 uM, 8 h; c terminus: a fixed tail appended

Challenge: GET /values?readout=protein stability index&item= MPPQPGIPQQQGMRPPMPPHGQYG [ZNF207]
Response given: 4.43

Challenge: Would you mind telling me what protein stability index value was observed for LGMYQKVTSYCRSATLVGFTVGSV [SLC19A2] ?
Response given: 2.73

Challenge: Can you share its protein stability index? I mean this sequence: AWEPRSESQASRKEEGLPEEEPSH [ZNF8]
Response given: 5.59

Challenge: Fill blank: measured protein stability index of the sequence LSATIGSILRELDTSMDGTEPPQN [SERTAD3] is ____.
Response given: 4.26

Challenge: Form field: reported protein stability index of YQLCHALRFLHENQLTHTDLKPEN [CLK3]
Response given: 4.76

Challenge: Requested read-out: protein stability index. Entry: SSIVWRFVEDSFDPNINPTIGASF [RAB22A]
Response given: 1.71

Challenge: What does the record list as protein stability index for DQFSALGLDPCLLEDELDKSVQGT [SLC6A17] ?
Response given: 5.19

Challenge: Need protein stability index, item TRGWVQTLARMSRRTRGPVERAAA [C6orf223]
Response given: 3.57

Challenge: For TSRGKLGGQDSFESIESYDSCDRL [ETS1] , what is its reported protein stability index?
Response given: 4.68

Challenge: Quick one: protein stability index of ILREIRHPNIITLHDIFENKTDVV [DAPK3] ?
Response given: 2.54

Challenge: Please report the recorded protein stability index for KDGVTMAPAFRLSLKAKVSDNMSH [FSD1] .
Response given: 3.75

Challenge: Record request: protein stability index value, item ARGDAVCTACGSVLEDNIIVSEVQ [BRF1]
Response given: 4.34

Challenge: Item under review: LVDVRQEQLQGFNTRVRELAQAAG [DNAAF3] . Reported protein stability index?
Response given: 3.67
